Tested on: DU-145
Assay: Cytotoxicity against human DU145 ATCC HTB 81 cells after 72 hrs by MTT assay
Format: functional, cell-based
Conditions: DU-145, 72 h
valueKind: pIC50
Scale for pIC50: -log10 of concentration given in mol/L; no unit attached.

// query Given the compound "CC(=O)c1c(O)c(C)c(O)c2c1OC1=CC(=O)/C(=C(/C)NCCCCCCCCN)C(=O)[C@@]12C" , write its reported pIC50.
// result 4.85

// query Using known records, supply pIC50 for CC(=O)C1=C(O)C=C2Oc3c(C(C)=O)c(O)c(C)c(O)c3C2(C)C1=O (single isomer, unassigned) [(-)-USNIC ACID]
// result 4.34

// query Determine from records and report pIC50 for CC(=O)C1=C(O)C=C2Oc3c(C(C)=O)c(O)c(C)c(O)c3[C@@]2(C)C1=O [(+)-USNIC ACID]
// result 4.24

// query For the compound COc1cc([C@@H]2c3cc4c(cc3[C@@H](O[C@@H]3O[C@@H]5CO[C@@H](C)O[C@H]5[C@H](O)[C@H]3O)[C@H]3COC(=O)[C@H]23)OCO4)cc(OC)c1O [ETOPOSIDE] , give its reported pIC50.
// result 5.82

* * *

Tested on: U-251
Test: Cytotoxicity against human U251 RCB 0641 cells after 72 hrs by MTT assay
Type: functional, cell-based
Settings: U-251, 72 h
valueKind: IC50 (µM)
Your answer should be a plain number; it is taken to be in µM.

// query Write IC50 of "CC(=O)c1c(O)c(C)c(O)c2c1OC1=CC(=O)/C(=C(/C)NCCCNCCCCNCCCN)C(=O)[C@@]12C" ; system used: U-251
// result 4.4

// query Under U-251: report IC50 of COc1cc([C@@H]2c3cc4c(cc3[C@@H](O[C@@H]3O[C@@H]5CO[C@@H](C)O[C@H]5[C@H](O)[C@H]3O)[C@H]3COC(=O)[C@H]23)OCO4)cc(OC)c1O [ETOPOSIDE] .
// result 0.5

* * *

Could you please report measured IC50 for the items listed next?
System: CHO
Assay: Cytotoxicity against CHO cells after 48 hrs by MTT assay
Assay type: cell-based
Settings: Cricetulus griseus
The response must be a number in µM with no trailing unit.

// query Answer with IC50 of "CC(=O)c1c(O)c(C)c(O)c2c1OC1=CC(=O)/C(=C(/C)NCCCNCCCCNCCCN)C(=O)[C@@]12C" measured for CHO.
// result 48

// query State the measured IC50 (CHO) of "CC(=O)c1c(O)c(C)c(O)c2c1OC1=CC(=O)/C(=C(/C)NCCCCN)C(=O)[C@@]12C"
// result 10.7

// query Supply IC50 measured with CHO for "CC(=O)c1c(O)c(C)c(O)c2c1OC1=CC(=O)/C(=C(/C)NCCCNCCCCN)C(=O)[C@@]12C" .
// result 29.3

// query # assay system CHO: give IC50 of "CC(=O)c1c(O)c(C)c(O)c2c1OC1=CC(=O)/C(=C(/C)NCCCCO)C(=O)[C@@]12C"
// result 19.5

// query Fill: IC50 (CHO) for this compound "CC(=O)c1c(O)c(C)c(O)c2c1OC1=CC(=O)/C(=C(/C)NCCCCCCCCN)C(=O)[C@@]12C"
// result 3.5

// query Report its IC50 with CHO as the test system: CC(=O)C1=C(O)C=C2Oc3c(C(C)=O)c(O)c(C)c(O)c3[C@@]2(C)C1=O [(+)-USNIC ACID]
// result 31.3

* * *

System: U-251
Test: Cytotoxicity against human U251 RCB 0641 cells after 72 hrs by MTT assay
Format: functional, cell-based
Details: U-251, 72 h
valueKind: pIC50
By convention, pIC50 is the negative base-10 log of a molar concentration.

// query Find the measured pIC50 of CC(=O)C1=C(O)C=C2Oc3c(C(C)=O)c(O)c(C)c(O)c3[C@@]2(C)C1=O [(+)-USNIC ACID] and report it.
// result 4.71

// query Assign pIC50 to the following record: "CC(=O)c1c(O)c(C)c(O)c2c1OC1=CC(=O)/C(=C(/C)NCCCNCCCCN)C(=O)[C@@]12C"
// result 4.90

// query Consider the compound CC(=O)C1=C(O)C=C2Oc3c(C(C)=O)c(O)c(C)c(O)c3C2(C)C1=O (single isomer, unassigned) [(-)-USNIC ACID] and give its recorded pIC50.
// result 4.71

// query Check the records and state pIC50 for "CC(=O)c1c(O)c(C)c(O)c2c1OC1=CC(=O)/C(=C(/C)NCCCCCCCCN)C(=O)[C@@]12C"
// result 5.09

* * *

What pIC50 was measured for each of the following?
Test system: L1210
Assay: Cytotoxicity against mouse L1210 ATCC CCL 219 cells after 48 hrs by MTT assay
Format: functional, cell-based
Conditions: L1210, 48 h
Scale for pIC50: -log10 of concentration given in mol/L; no unit attached.

// query Fill in reported pIC50 for this entry: "CCOC(=O)[C@H](CC(C)C)N/C(C)=C1\C(=O)C=C2Oc3c(C(C)=O)c(O)c(C)c(O)c3[C@@]2(C)C1=O"
// result 4.31

// query Please report the measured pIC50 for "NCCCNCCCCNCCCN"
// result 4.26

// query Annotate the compound COc1cc([C@@H]2c3cc4c(cc3[C@@H](O[C@@H]3O[C@@H]5CO[C@@H](C)O[C@H]5[C@H](O)[C@H]3O)[C@H]3COC(=O)[C@H]23)OCO4)cc(OC)c1O [ETOPOSIDE] with its measured pIC50.
// result 6.30

// query Query pIC50 for "CC(=O)c1c(O)c(C)c(O)c2c1OC1=CC(=O)/C(=C(/C)NCCCNCCCCNCCCN)C(=O)[C@@]12C"
// result 4.82

// query # return recorded pIC50 for input "CC(=O)c1c(O)c(C)c(O)c2c1OC1=CC(=O)/C(=C(/C)NCCCCN)C(=O)[C@@]12C"
// result 4.92

* * *

Tested on: L1210
Assay: Cytotoxicity against mouse L1210 ATCC CCL 219 cells after 48 hrs by MTT assay
Assay type: functional, cell-based
Conditions: L1210, 48 h
valueKind: IC50

// query Give me measured IC50, please, for this compound: "CCCCCCCCCN/C(C)=C1\C(=O)C=C2Oc3c(C(C)=O)c(O)c(C)c(O)c3[C@@]2(C)C1=O"
// result > 500 µM

// query Give reported IC50 value for "NCCCCNCCCN"
// result > 100 µM

// query Specify reported IC50 for the compound shown: "NCCCCN"
// result > 100 µM
